- assayed_system: Serotonin-reuptake Sites (Rattus norvegicus, UniProt P31652)
- Construct: The membranes are prepared from rat frontal cortex
- Sequence (P31652 whole entry): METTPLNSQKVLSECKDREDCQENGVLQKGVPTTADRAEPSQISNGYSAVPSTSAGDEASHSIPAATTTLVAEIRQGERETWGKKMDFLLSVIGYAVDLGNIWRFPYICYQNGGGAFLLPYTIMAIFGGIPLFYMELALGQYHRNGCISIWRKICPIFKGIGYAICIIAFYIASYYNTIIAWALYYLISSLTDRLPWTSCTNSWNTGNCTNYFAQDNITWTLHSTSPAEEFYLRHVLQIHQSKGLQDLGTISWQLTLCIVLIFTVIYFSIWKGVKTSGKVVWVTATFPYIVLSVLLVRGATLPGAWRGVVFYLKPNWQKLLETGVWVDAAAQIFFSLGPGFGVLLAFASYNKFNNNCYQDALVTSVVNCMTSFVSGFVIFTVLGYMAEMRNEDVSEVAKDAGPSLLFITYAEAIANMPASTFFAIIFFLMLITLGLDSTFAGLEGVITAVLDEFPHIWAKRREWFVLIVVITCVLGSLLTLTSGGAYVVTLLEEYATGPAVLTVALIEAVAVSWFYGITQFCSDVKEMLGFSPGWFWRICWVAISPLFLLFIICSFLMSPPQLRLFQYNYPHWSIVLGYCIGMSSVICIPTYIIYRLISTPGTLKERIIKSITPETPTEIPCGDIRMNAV
- assay_procedure: Determination of Affinity for Serotonin-reuptake Sites in the Rat ([^3 H]-paroxetine competition)
- recorded_conditions: read-out: dissociation constant Ki
- Description: Determination of Affinity for Serotonin-reuptake Sites in the Rat The incubation buffer contains 50 mM TRIS-HCl (pH 7.4), 120 mM NaCl and 5 mM KCl. Non-specific binding is determined using 10 μM citalopram. […] The radioactivity retained on the filters is determined by liquid scintillation counting. The binding isotherms are analysed by non-linear regression to determine the IC50 values. […]
Counter-ions that a name gives are not always drawn.
observed_property: Ki (nM)
# value in nM; strip the unit string

Incoming: Supply Ki measured with Serotonin-reuptake Sites (Rattus norvegicus, UniProt P31652) for COc1cncnc1N1CCN(CCCn2ccc3ccc(C#N)cc32)CC1 [Example 1, dihydrochloride] .
Outgoing: 9.8
